Reported hydrolysis, share of products values for a set of molecules
Target: hSARM1 full length (Homo sapiens)
Construct: Human recombinant SARM1 full length proteins (wild-type and E642A mutant); made in house
Sequence (Q6SZW1 28-724): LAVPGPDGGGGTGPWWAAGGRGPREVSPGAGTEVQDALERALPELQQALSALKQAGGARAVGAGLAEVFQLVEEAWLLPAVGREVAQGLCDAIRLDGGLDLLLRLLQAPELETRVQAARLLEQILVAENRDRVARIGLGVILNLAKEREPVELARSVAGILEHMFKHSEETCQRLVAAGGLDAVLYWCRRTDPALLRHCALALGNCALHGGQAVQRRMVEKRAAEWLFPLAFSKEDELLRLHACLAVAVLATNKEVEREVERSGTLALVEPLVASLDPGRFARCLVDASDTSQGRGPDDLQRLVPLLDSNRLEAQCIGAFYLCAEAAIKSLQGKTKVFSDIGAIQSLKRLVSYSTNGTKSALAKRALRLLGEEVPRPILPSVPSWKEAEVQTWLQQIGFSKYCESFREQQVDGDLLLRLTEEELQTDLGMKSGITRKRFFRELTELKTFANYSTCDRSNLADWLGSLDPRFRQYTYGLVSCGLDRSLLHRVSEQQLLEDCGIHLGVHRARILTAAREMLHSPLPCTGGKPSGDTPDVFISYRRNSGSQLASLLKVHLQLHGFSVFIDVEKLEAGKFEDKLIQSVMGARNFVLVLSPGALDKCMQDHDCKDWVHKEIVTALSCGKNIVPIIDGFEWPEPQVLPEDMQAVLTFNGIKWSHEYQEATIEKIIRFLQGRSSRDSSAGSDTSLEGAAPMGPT
Experiment: Base exchange reactions at neutral pH (HPLC)
Assay type: biochemical
Conditions: hSARM1 full length +NMN 0.2 mM; NADP […]
Readout kind: hydrolysis, share of products

{"Molecule": "CC(=O)c1cccnc1", "Readout kind": "hydrolysis, share of products", "Value observed": "6.80%"}
{"Molecule": "NC(=O)c1ccc[n+]([C@@H]2O[C@H](COP(=O)([O-])O)[C@@H](O)[C@H]2O)c1 [NMN, nicotinamide mononucleotide]", "Readout kind": "hydrolysis, share of products", "Value observed": "99.95%"}
{"Molecule": "O=C(NCc1cccnc1)Nc1ccc([N+](=O)[O-])cc1", "Readout kind": "hydrolysis, share of products", "Value observed": "76.34%"}
{"Molecule": "O=C(O)c1cccnc1", "Readout kind": "hydrolysis, share of products", "Value observed": "98.47%"}

###

Target: hSARM1 full length (Homo sapiens)
Construct: Human recombinant SARM1 full length proteins (wild-type and E642A mutant); made in house
Experiment: Base exchange reactions at neutral pH (HPLC)
Type: biochemical
Details: hSARM1 full length +NMN 0.2 mM; NAD […]
Protocol: Multiple time stops from individual assays as above were analyzed for linearity, then extents of hydrolysis (white bars), cyclization (red bars), or base exchange (black bars) were calculated from each corresponding product as shown in Figure 1B and STAR methods. […] hSARM1 species were routinely assayed by the NAD/NADH-Glo^TM Assay (Promega) while both Aplysia cyclase and CD38 were assayed by fluorometry using ϵNAD ([Orsomando et al., 2000]). […] Rates were calculated as follows. […]

{"Molecule": "NC(=O)c1ccc[n+]([C@@H]2O[C@H](COP(=O)([O-])O)[C@@H](O)[C@H]2O)c1 [NMN, nicotinamide mononucleotide]", "hydrolysis, share of products": "90.49%"}
{"Molecule": "O=C(O)c1cccnc1", "hydrolysis, share of products": "90.07%"}
{"Molecule": "CC(=O)c1cccnc1", "hydrolysis, share of products": "6.47%"}
{"Molecule": "O=C(NCc1cccnc1)Nc1ccc([N+](=O)[O-])cc1", "hydrolysis, share of products": "72.08%"}
